# key: entry, value: boiling point
Give your result in °C as a bare value.

q: Need boiling point, item "CC#CC=CC"
a: 88.5

* * *

recorded_endpoint: melting point (°C)
Give your result in °C as a bare value.

CC(C)(Cl)C(=O)O = 31
CNO = 87.5
Cc1cc(C)c([N+](=O)[O-])cc1C = 71
CS(C)(=O)=O = 109
CC[C@@]12CCCN3CC[C@]4(c5cccc(OC)c5N(C(C)=O)[C@@H]4CC1)[C@H]32 = 208
NNC(=O)c1ccc(Br)cc1 = 166

q: Need melting point, item "CCCCB(O)O"
a: 95

q: Need melting point, item "CCOc1ccccc1"
a: -29.5
